# Tested on: Plasma
# EXPERIMENT DESCRIPTION: Drug level in human plasma treated with [14C}LY2452473 at 15 mg, po after 4 hrs administered as single dose by HPLC analysis
# Type: ADME, organism-based
# RUN CONDITIONS: in vivo
As shown below, each of these compounds has a reported Drug uptake value.
Give the value in % but do not write % after it.

Previously resolved entries follow.
C[C@@H](CO)OC(=O)N[C@H]1Cc2c(n(Cc3ccccn3)c3ccc(C#N)cc23)C1 = 0.97
CC(C)OC(=O)N[C@H]1Cc2c(n(Cc3ccccn3)c3ccc(C#N)cc23)[C@H]1O = 24.24
C[C@H](CO)OC(=O)N[C@H]1Cc2c(n(Cc3ccccn3)c3ccc(C#N)cc23)C1 = 2.2
CC(C)OC(=O)N[C@H]1Cc2c(n(Cc3ccccn3)c3ccc(C#N)cc23)C1 [LY2452473] = 66.33

Now for another entry.
Request the reported Drug uptake associated with CC(=O)N[C@H]1Cc2c(n(Cc3ccccn3)c3ccc(C#N)cc23)C1
1.74
